Sourced from patent US6610675B1

A collection of compounds and their measured Body wt. gain
# Test system: granulation tissue formation caused by implantation of cotton pellets
# protocol.summary: Granuloma formation test (local cotton pellet granuloma assay)
# Format: in vivo, rat
# assay.setup: Table V-a, 10 μg/pellet
Quick reminder: number only, in g, skip the unit.

compound | readout.number
CCOC(=O)O[C@]1(C(=O)OCCl)[C@@H](C)C[C@H]2[C@@H]3CCC4=CC(=O)C=C[C@]4(C)[C@@]3(F)[C@@H](O)C[C@@]21C | 31.1

Input: For the compound CCCOC(=O)O[C@]1(C(=O)OCCl)[C@H](C)C[C@H]2[C@@H]3CCC4=CC(=O)C=C[C@]4(C)[C@@]3(F)[C@@H](O)C[C@@]21C , give its reported Body wt. gain.
Output: 33.1

Input: For the compound CCC(=O)O[C@]1(C(=O)CCl)[C@@H](C)C[C@H]2[C@@H]3CCC4=CC(=O)C=C[C@]4(C)[C@@]3(F)[C@@H](O)C[C@@]21C [Clobetasol 17-propionate, reference compound] , give its reported Body wt. gain.
Output: 25.0

Input: For the compound CCCCC(=O)O[C@]1(C(=O)CO)[C@@H](C)C[C@H]2[C@@H]3CCC4=CC(=O)C=C[C@]4(C)[C@@]3(F)[C@@H](O)C[C@@]21C [Betamethasone 17-valerate, reference compound] , give its reported Body wt. gain.
Output: 31.8

----------
A collection of molecules and their measured Granulation tissue Wet wt.
# System: granulation tissue formation caused by implantation of cotton pellets
# protocol.summary: Granuloma formation test (local cotton pellet granuloma assay)
# Type: in vivo, rat
# assay.setup: Table IV, 300 μg/pellet
Quick reminder: number only, in mg, skip the unit.

Worked examples, 3 molecules total:
molecule | target.desc | Granulation tissue Wet wt. [mg]
CC(C)OC(=O)O[C@]1(C(=O)OCCl)CC[C@H]2[C@@H]3CCC4=CC(=O)C=C[C@]4(C)[C@H]3[C@@H](O)C[C@@]21C | granulation tissue formation caused by implantation of cotton pellets | 369
CCCCC(=O)O[C@]1(C(=O)CO)[C@@H](C)C[C@H]2[C@@H]3CCC4=CC(=O)C=C[C@]4(C)[C@@]3(F)[C@@H](O)C[C@@]21C [Betamethasone 17-valerate, reference compound] | granulation tissue formation caused by implantation of cotton pellets | 347
CC(C)OC(=O)O[C@]1(C(=O)OCCl)CC[C@H]2[C@@H]3CCC4=CC(=O)CC[C@]4(C)[C@H]3[C@@H](O)C[C@@]21C | granulation tissue formation caused by implantation of cotton pellets | 431

Turning now to a further record.
Input: For the molecule CCCC(=O)O[C@]1(C(=O)CO)CC[C@H]2[C@@H]3CCC4=CC(=O)CC[C@]4(C)[C@H]3[C@@H](O)C[C@@]21C [Hydrocortisone 17-butyrate, reference compound] , give its reported Granulation tissue Wet wt..
Output: 333

----------
# Tested on: thymus weight in rats
# protocol.summary: Thymus inhibition testing (subcutaneous administration)
# Format: in vivo, rat
# assay.setup: Table VII, 3 mg/kg/day s.c., three days
Returns one of Yes or No; Yes when Thymus Inhibition is >= 20%.

Solved cases below.
compound | group.label
CCCC(=O)O[C@]1(C(=O)CO)CC[C@H]2[C@@H]3CCC4=CC(=O)CC[C@]4(C)[C@H]3[C@@H](O)C[C@@]21C [Hydrocortisone 17-butyrate, reference compound] | Yes
CC(C)OC(=O)O[C@]1(C(=O)OCCl)CC[C@H]2[C@@H]3CCC4=CC(=O)CC[C@]4(C)[C@H]3[C@@H](O)C[C@@]21C | No
CCCCC(=O)O[C@]1(C(=O)CO)[C@@H](C)C[C@H]2[C@@H]3CCC4=CC(=O)C=C[C@]4(C)[C@@]3(F)[C@@H](O)C[C@@]21C [Betamethasone 17-valerate, reference compound] | Yes

Now consider a different compound.
Input: State whether the measured Thymus Inhibition reaches 20%, counting equality as reaching it, for CCOC(=O)O[C@]1(C(=O)OCCl)[C@H](C)C[C@H]2[C@@H]3CCC4=CC(=O)C=C[C@]4(C)[C@@]3(F)[C@@H](O)C[C@@]21C
Output: No

----------
# System: granulation tissue formation caused by implantation of cotton pellets
# protocol.summary: Granuloma formation test (local cotton pellet granuloma assay)
# Assay type: in vivo, rat
# assay.setup: Table V-a, 10 μg/pellet
endpoint.name: Granulation tissue Dry wt. (mg)
Quick reminder: number only, in mg, skip the unit.

compound | measurement.unit | readout.number
CCOC(=O)O[C@]1(C(=O)OCCl)[C@@H](C)C[C@H]2[C@@H]3CCC4=CC(=O)C=C[C@]4(C)[C@@]3(F)[C@@H](O)C[C@@]21C | mg | 34.8
CCCCC(=O)O[C@]1(C(=O)CO)[C@@H](C)C[C@H]2[C@@H]3CCC4=CC(=O)C=C[C@]4(C)[C@@]3(F)[C@@H](O)C[C@@]21C [Betamethasone 17-valerate, reference compound] | mg | 38.5
CCCOC(=O)O[C@]1(C(=O)OCCl)[C@H](C)C[C@H]2[C@@H]3CCC4=CC(=O)C=C[C@]4(C)[C@@]3(F)[C@@H](O)C[C@@]21C | mg | 28.5

Turning now to a further record.
Input: Give Granulation tissue Dry wt. for CCC(=O)O[C@]1(C(=O)CCl)[C@@H](C)C[C@H]2[C@@H]3CCC4=CC(=O)C=C[C@]4(C)[C@@]3(F)[C@@H](O)C[C@@]21C [Clobetasol 17-propionate, reference compound] tested on granulation tissue formation caused by implantation of cotton pellets.
Output: 37.9

----------
# Tested on: granulation tissue formation caused by implantation of cotton pellets
# protocol.summary: Granuloma formation test (local cotton pellet granuloma assay)
# Assay type: in vivo, rat
# assay.setup: Table IV, 300 μg/pellet
# Procedure: The test compound was dissolved in acetone and aliquots of varying concentrations were injected into cotton pellets. The pellets were dried and then one pellet was implanted beneath the skin of each test rat. Six days later, the animals were sacrificed and the granulation tissue (granuloma) which formed in and around the implanted pellet was removed, dried and weighed. In addition, the thymi and adrenals were removed and weighed.
endpoint.name: Granulation tissue Dry wt. Inhibition (%)
Quick reminder: number only, in %, skip the unit.

Worked examples, 3 compounds total:
compound | endpoint.name | readout.number
CC(C)OC(=O)O[C@]1(C(=O)OCCl)CC[C@H]2[C@@H]3CCC4=CC(=O)CC[C@]4(C)[C@H]3[C@@H](O)C[C@@]21C | Granulation tissue Dry wt. Inhibition | 37.3
CCCCC(=O)O[C@]1(C(=O)CO)[C@@H](C)C[C@H]2[C@@H]3CCC4=CC(=O)C=C[C@]4(C)[C@@]3(F)[C@@H](O)C[C@@]21C [Betamethasone 17-valerate, reference compound] | Granulation tissue Dry wt. Inhibition | 59.0
CC(C)OC(=O)O[C@]1(C(=O)OCCl)CC[C@H]2[C@@H]3CCC4=CC(=O)C=C[C@]4(C)[C@H]3[C@@H](O)C[C@@]21C | Granulation tissue Dry wt. Inhibition | 53.1

Turning now to a further record.
Input: For the compound CCCC(=O)O[C@]1(C(=O)CO)CC[C@H]2[C@@H]3CCC4=CC(=O)CC[C@]4(C)[C@H]3[C@@H](O)C[C@@]21C [Hydrocortisone 17-butyrate, reference compound] , give its reported Granulation tissue Dry wt. Inhibition.
Output: 58.1

----------
A collection of compounds and their measured ED40
# Tested on: granulation tissue formation caused by implantation of cotton pellets
# protocol.summary: Granuloma formation test (local cotton pellet granuloma assay)
# Format: in vivo, rat
# assay.setup: dose causing 40% inhibition of granulation tissue weight
Quick reminder: number only, in μg/pellet, skip the unit.

Worked examples, 5 compounds total:
structure.as.smiles | ED40 (μg/pellet)
CCOC(=O)O[C@]1(C(=O)OCCl)[C@@H](C)C[C@H]2[C@@H]3CCC4=CC(=O)C=C[C@]4(C)[C@@]3(F)[C@@H](O)C[C@@]21C | 2.31
CCOC(=O)O[C@]1(C(=O)OCCl)[C@H](C)C[C@H]2[C@@H]3CCC4=CC(=O)C=C[C@]4(C)[C@@]3(F)[C@@H](O)C[C@@]21C | 0.47
CC(C)OC(=O)O[C@]1(C(=O)OCCl)CC[C@H]2[C@@H]3CCC4=CC(=O)C=C[C@]4(C)[C@H]3[C@@H](O)C[C@@]21C | 47
CC(C)OC(=O)O[C@]1(C(=O)OCCl)CC[C@H]2[C@@H]3CCC4=CC(=O)CC[C@]4(C)[C@H]3[C@@H](O)C[C@@]21C | 307
CC(C)OC(=O)O[C@]1(C(=O)OCCl)[C@@H](C)C[C@H]2[C@@H]3CCC4=CC(=O)C=C[C@]4(C)[C@@]3(F)[C@@H](O)C[C@@]21C | 0.25

Turning now to a further record.
Input: Give ED40 for CCCOC(=O)O[C@]1(C(=O)OCCl)[C@H](C)C[C@H]2[C@@H]3CCC4=CC(=O)C=C[C@]4(C)[C@@]3(F)[C@@H](O)C[C@@]21C tested on granulation tissue formation caused by implantation of cotton pellets.
Output: 0.58
